Listing: inhibition at 10 µM of selected molecules
# Experimental system: human MAGL (His-hMAGL) (Homo sapiens, UniProt Q99685)
# Construct: made in house; host or cells: Escherichia coli BL21(DE3)
# Sequence (Q99685 whole entry): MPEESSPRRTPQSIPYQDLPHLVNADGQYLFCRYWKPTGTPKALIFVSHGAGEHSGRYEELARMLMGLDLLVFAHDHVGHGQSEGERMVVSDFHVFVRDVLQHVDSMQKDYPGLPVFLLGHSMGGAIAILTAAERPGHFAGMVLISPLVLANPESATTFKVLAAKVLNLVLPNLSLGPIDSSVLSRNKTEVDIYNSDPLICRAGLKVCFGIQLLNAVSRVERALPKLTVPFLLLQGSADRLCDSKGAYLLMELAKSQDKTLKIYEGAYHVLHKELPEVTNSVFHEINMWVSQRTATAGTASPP
# Method: Measurement of MAGL inhibitory activity by mass spectrometry
# Format: biochemical
# Condition info: 10 μM test compound; substrate 2-arachidonylglycerol, arachidonic acid by RapidFire-mass spectrometry
The answer is to be given in %; state only the numeric part.

Below, 4 molecules whose answers are already recorded.
O=C(c1nccs1)N1CCN(C2CC(=O)N(c3cccc(-c4ccccc4F)c3)C2)CC1 (centres unmarked) [Example 136]    102
CC(=O)Nc1ccc(Nc2cccc(N3CC(N4CCN(C(=O)c5nccs5)CC4)CC3=O)c2)cc1 (centres unmarked) [Example 116]    99
O=C1CCc2ccc(Nc3cccc(N4CC(N5CCN(C(=O)c6nccs6)CC5)CC4=O)c3)cc2N1 (centres unmarked) [Example 123]    97
CNC(=O)c1ccc(-c2cccc(N3CC(N4CCN(C(=O)c5nccs5)CC4)CC3=O)c2)cc1 (centres unmarked) [Example 104]    95

Known value: human MAGL (His-hMAGL) (Homo sapiens, UniProt Q99685) inhibition at 10 µM of the molecule O=C(c1cscn1)N1CCN(C2CC(=O)N(c3cccc(-c4ccccc4Cl)c3)C2)CC1 (centres unmarked) [Example 168] equals 101

Reference source: patent US9624170B2
